- Test System: T1, mouse IL-25 expressed with a C-terminal myc-myc-hexahistidine tag (mouse)
- T1 construct: also called Mouse IL-25-MMH; mIL-25-MMH
- T1 chain: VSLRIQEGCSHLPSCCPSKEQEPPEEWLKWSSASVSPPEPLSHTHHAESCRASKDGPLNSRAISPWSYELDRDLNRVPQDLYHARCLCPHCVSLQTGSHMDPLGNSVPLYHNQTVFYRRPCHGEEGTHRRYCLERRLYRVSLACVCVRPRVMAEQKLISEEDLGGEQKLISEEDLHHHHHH
- Assay Details: SPR Biacore, antibody captured, 37C;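 also: Real-time sensorgrams of IL-25-MMH binding to purified anti-IL-25 antibodies, rate constants obtained by fitting a 1:1 binding model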
Listed below: koff values for each entry.

Binder | Value Units | koff
H4H10897P (antibody, human IgG4, V domains shown, H4H prefix = human IgG4 Fc) VH: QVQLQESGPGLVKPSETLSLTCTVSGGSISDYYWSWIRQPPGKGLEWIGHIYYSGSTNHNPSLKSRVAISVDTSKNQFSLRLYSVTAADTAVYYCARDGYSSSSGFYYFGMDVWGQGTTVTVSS VL: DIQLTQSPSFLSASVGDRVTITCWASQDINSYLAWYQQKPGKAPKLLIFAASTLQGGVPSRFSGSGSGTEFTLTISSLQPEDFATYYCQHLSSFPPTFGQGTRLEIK | s⁻¹ | 0.00641
H4H10905P (antibody, human IgG4, V domains shown, H4H prefix = human IgG4 Fc) VH: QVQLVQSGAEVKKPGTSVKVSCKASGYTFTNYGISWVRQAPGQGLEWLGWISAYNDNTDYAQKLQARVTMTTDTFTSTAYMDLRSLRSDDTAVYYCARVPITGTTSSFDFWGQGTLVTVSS VL: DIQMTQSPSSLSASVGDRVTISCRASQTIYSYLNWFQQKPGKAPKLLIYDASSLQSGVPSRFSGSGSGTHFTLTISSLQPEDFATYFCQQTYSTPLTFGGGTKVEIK | s⁻¹ | 0.000178
H4H10907P (antibody, human IgG4, V domains shown, H4H prefix = human IgG4 Fc) VH: EVQLVESGGGLVQPGGSLRLSCAASGFTFSNYDIHWVRQVPGKGLEWISTIGSAGDTFYPGSVKGRFTISRENAKNSLYLQMNSLRAGDSAVYYCARGDNWNYVSWFFDLWGRGTLVTVSS VL: DIQLTQSPSFLSTSVGDRVTITCWASQDISSFLAWYQQKPGKAPKLLIYAASVLQSGVPSRFSGSGSGTEFTLTISSLQPEDFATYYCQQVNSYPITFGQGTRLEIK | s⁻¹ | 0.0376

The origin of these recorded values is patent US20160083466A1.
